# Target System: Mitogen-activated protein kinase 1 (Homo sapiens) (UniProt P28482)
# Sequence (P28482 whole entry): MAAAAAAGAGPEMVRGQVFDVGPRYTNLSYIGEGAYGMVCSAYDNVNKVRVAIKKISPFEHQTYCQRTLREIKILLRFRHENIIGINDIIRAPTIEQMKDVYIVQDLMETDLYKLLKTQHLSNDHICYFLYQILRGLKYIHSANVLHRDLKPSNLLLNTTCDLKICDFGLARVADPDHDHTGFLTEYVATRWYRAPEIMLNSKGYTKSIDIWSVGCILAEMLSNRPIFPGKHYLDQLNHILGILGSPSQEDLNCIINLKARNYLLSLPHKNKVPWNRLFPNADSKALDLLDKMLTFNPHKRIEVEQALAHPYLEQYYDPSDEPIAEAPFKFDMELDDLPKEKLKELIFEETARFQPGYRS
# Test Summary: Inhibition of MAPK2/ERK2 at 10 uM
Measure: inhibition (%)
Write the value in % as a bare number.

Query: I have this molecule here, `CONC(=O)c1cn(C)c(=O)c(C)c1Nc1ccc(Br)cc1F` , and I need its recorded inhibition.
Result: -9

Query: I have this molecule here, `CCONC(=O)c1cn(C)c(=O)c(F)c1Nc1ccc(Br)cc1F` , and I need its recorded inhibition.
Result: 7

Query: I have this molecule here, `Cc1c(Nc2ccc(Br)cc2F)c(C(=O)NOCCO)cn(C)c1=O` , and I need its recorded inhibition.
Result: 6

Query: I have this molecule here, `CCONC(=O)c1cn(C)c(=O)c(C)c1Nc1ccc(Br)cc1F` , and I need its recorded inhibition.
Result: 6
